- System: Rattus norvegicus
- PROCEDURE_DETAILS: Antinociceptive activity in Wistar rat chronic constriction injury model assessed as reversal of cold allodynia at 100 mg/kg, ip after 120 mins (reference value: 5.4 +/- 1.9%)
- Assay type: functional
- ASSAY_SETUP: route intraperitoneal
Entries annotated with measured Activity
PROPERTY: Activity (%)

compound_structure=CCN1CCc2c(c(C(C)(C)C)nn2C(=O)Nc2c(C)cccc2C)C1 property=Activity reported_result=18.8
compound_structure=CCN1CCc2c(c(C)nn2C(=O)Nc2cc(C)ccc2F)C1 property=Activity reported_result=2.8
compound_structure=CCN1CCc2c(c(C)nn2C(=O)Nc2ccc(Cl)cc2)C1 property=Activity reported_result=9.5
compound_structure=CCN1CCc2c(c(C)nn2C(=O)Nc2cccc(C(F)(F)F)c2)C1 property=Activity reported_result=7
compound_structure=CCN1CCc2c(c(C(C)(C)C)nn2C(=O)Nc2cc(C)ccc2F)C1 property=Activity reported_result=12
compound_structure=CCN1CCc2c(c(C)nn2C(=O)Nc2ccc(F)cc2F)C1 property=Activity reported_result=40.6
compound_structure=CCN1CCc2c(c(C(C)(C)C)nn2C(=O)Nc2ccc(F)cc2F)C1 property=Activity reported_result=40
compound_structure=CCN1CCc2c(c(C(C)(C)C)nn2C(=O)Nc2ccc(Cl)cc2)C1 property=Activity reported_result=10.5
compound_structure=CCN1CCc2c(c(C)nn2C(=O)Nc2c(C)cccc2C)C1 property=Activity reported_result=13.4
compound_structure=CCN1CCc2c(c(C(C)(C)C)nn2C(=O)Nc2ccc(Br)cc2)C1 property=Activity reported_result=56.9
compound_structure=CCN1CCc2c(c(C(C)(C)C)nn2C(=O)Nc2cc(C)ccc2C)C1 property=Activity reported_result=40.5

----------
Measured Activity accompanies every entry in the list below.
- Test system: Rattus norvegicus
- PROCEDURE_DETAILS: Antinociceptive activity in Wistar rat chronic constriction injury model assessed as reversal of cold allodynia at 100 mg/kg, ip after 120 mins (reference value: 5.4 +/- 1.9%)
- Type: functional
- ASSAY_SETUP: route intraperitoneal
PROPERTY: Activity (%)

compound_structure=NCC1(CC(=O)O)CCCCC1 study_target="Rattus norvegicus" value_unit=% reported_result=35.6
compound_structure=CCN1CCc2c(c(C(C)(C)C)nn2C(=O)Nc2ccc(C)cc2C)C1 study_target="Rattus norvegicus" value_unit=% reported_result=40.4
compound_structure=CCN1CCc2c(c(C)nn2C(=O)Nc2ccc(C)cc2C)C1 study_target="Rattus norvegicus" value_unit=% reported_result=41.8
compound_structure=CCN1CCc2c(c(C(C)(C)C)nn2C(=O)Nc2cccc(C(F)(F)F)c2)C1 study_target="Rattus norvegicus" value_unit=% reported_result=9.3
compound_structure=CCN1CCc2c(c(C)nn2C(=O)Nc2ccc(Br)cc2)C1 study_target="Rattus norvegicus" value_unit=% reported_result=32.6
compound_structure=CCN1CCc2c(c(C)nn2C(=O)Nc2cc(C)ccc2C)C1 study_target="Rattus norvegicus" value_unit=% reported_result=14.1

----------
- System: Rattus norvegicus
- PROCEDURE_DETAILS: Antinociceptive activity in Wistar rat partial sciatic nerve ligation model assessed as reversal of mechanical allodynia at 100 mg/kg, ip after 30 mins (reference value: 2.9 +/- 0.3%)
- Assay type: functional
- ASSAY_SETUP: route intraperitoneal
PROPERTY: Activity

compound_structure=CCN1CCc2c(c(C)nn2C(=O)Nc2c(C)cccc2C)C1 reported_result=57.8%
compound_structure=NCC1(CC(=O)O)CCCCC1 reported_result=86.2%
compound_structure=CCN1CCc2c(c(C(C)(C)C)nn2C(=O)Nc2c(C)cccc2C)C1 reported_result=95.5%
compound_structure=CCN1CCc2c(c(C)nn2C(=O)Nc2ccc(F)cc2F)C1 reported_result=62.1%
compound_structure=CCN1CCc2c(c(C(C)(C)C)nn2C(=O)Nc2cc(C)ccc2C)C1 reported_result=14.3%
compound_structure=CCN1CCc2c(c(C(C)(C)C)nn2C(=O)Nc2ccc(F)cc2F)C1 reported_result=60%
compound_structure=CCN1CCc2c(c(C(C)(C)C)nn2C(=O)Nc2ccc(C)cc2C)C1 reported_result=62.3%
compound_structure=CCN1CCc2c(c(C)nn2C(=O)Nc2cc(C)ccc2C)C1 reported_result=39.6%
compound_structure=CCN1CCc2c(c(C)nn2C(=O)Nc2ccc(C)cc2C)C1 reported_result=63.3%
compound_structure=CCN1CCc2c(c(C(C)(C)C)nn2C(=O)Nc2cccc(C(F)(F)F)c2)C1 reported_result=52.8%
compound_structure=CCN1CCc2c(c(C)nn2C(=O)Nc2cc(C)ccc2F)C1 reported_result=44.8%
compound_structure=CCN1CCc2c(c(C)nn2C(=O)Nc2ccc(Br)cc2)C1 reported_result=50%
compound_structure=CCN1CCc2c(c(C)nn2C(=O)Nc2ccc(Cl)cc2)C1 reported_result=17.5%
compound_structure=CCN1CCc2c(c(C(C)(C)C)nn2C(=O)Nc2ccc(Br)cc2)C1 reported_result=59.8%
compound_structure=CCN1CCc2c(c(C(C)(C)C)nn2C(=O)Nc2cc(C)ccc2F)C1 reported_result=12.1%
compound_structure=CCN1CCc2c(c(C)nn2C(=O)Nc2cccc(C(F)(F)F)c2)C1 reported_result=15.6%
compound_structure=CCN1CCc2c(c(C(C)(C)C)nn2C(=O)Nc2ccc(Cl)cc2)C1 reported_result=11.1%
